Tested on: CAMK2A
Settings: concentration: 1 μM, replicates: in singlicate; n = 1;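 note: KINOMEscan kinase panel screen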
readout_type: %Inh (%)
Your answer is read as %, so omit the unit and give the number.

# input // %Inh lookup, key: "Cl.NS(=O)(=O)c1cccc(Nc2cc(-c3ccc(F)cc3)n[nH]2)c1"
# output 0

# input // %Inh lookup, key: "Cc1ccc(-c2ccc3c(ccc4sc5c(c43)NC[C@@H](C)N=C5N(C)C)n2)cn1"
# output 0

# input // %Inh lookup, key: "Cl.c1ccc(Cn2cnc3cc(Nc4ncnc5ccccc45)ccc32)cc1"
# output 0

# input // %Inh lookup, key: "CCS(=O)(=O)c1ccc(OC)c(Nc2ncc(-c3ccc(F)cc3)o2)c1.Cl"
# output 0

# input // %Inh lookup, key: "Cc1nn2c(=O)cc(N3CCOCC3)nc2n1Cc1cccc(Cl)c1Cl"
# output 0

# input // %Inh lookup, key: "Nc1ncnc2c1ncn2-c1cccc2ccccc12"
# output 0

# input // %Inh lookup, key: "Cc1c(Cn2c(C)nn3c(=O)cc(N4CCO[C@H](C)C4)nc23)cccc1C(F)(F)F"
# output 0

# input // %Inh lookup, key: "CN1C(=O)C(Nc2ccccc2)=C(c2ccccc2)C1=O"
# output 0

# input // %Inh lookup, key: "CCC(=O)c1c(-c2ccccc2)c2cc(Cl)ccc2c(=O)n1Cc1cc(C(=O)NC2CC2)n(C)n1"
# output 0

# input // %Inh lookup, key: "COc1cccc(C2=C(N(C)c3ccccc3)C(=O)NC2=O)c1"
# output 0

# input // %Inh lookup, key: COc1ccc(CNC(=O)NC2CCN(c3ccnc(Nc4ccc(F)cc4)n3)C2)cc1 (stereo not shown)
# output 0

# input // %Inh lookup, key: "O=C1NC(=O)C(c2ccccc2)=C1Nc1cccc(O)c1"
# output 17

# input // %Inh lookup, key: CCS(=O)c1ccc(-c2coc3ccc(-c4nnc(C)o4)cc23)cc1 (stereo not shown)
# output 0

# input // %Inh lookup, key: "CCc1ccc(-c2ccc3c(c2)-c2nn(C)cc2S(=O)(=O)N3C)cc1"
# output 9

# input // %Inh lookup, key: "CCn1c(-c2ccoc2)nc2cnccc21"
# output 0

# input // %Inh lookup, key: "O=c1cc(N2CCOCC2)nc2n(Cc3ccc(F)c(Cl)c3)ccn12"
# output 0

# input // %Inh lookup, key: "Cc1cc(Nc2nc(-c3cccc(C)n3)nc3ccccc23)ccn1"
# output 0

# input // %Inh lookup, key: "COC(=O)c1c(-c2ccccc2)c2cc(Br)ccc2c(=O)n1Cc1ccc(S(C)(=O)=O)cc1"
# output 21

# input // %Inh lookup, key: "O=C(Nc1n[nH]c2nc(-c3ccccc3)c(Cl)cc12)C1CC1"
# output 0

###

Consider the following molecules; for each one, report its %Inh.
Tested on: DDR1
Details: concentration: 1 μM, replicates: in singlicate; n = 1
Your answer is read as %, so omit the unit and give the number.

# input // %Inh lookup, key: "CN1C(=O)C(Nc2ccccc2)=C(c2ccccc2)C1=O"
# output 0

# input // %Inh lookup, key: "O=C(Nc1n[nH]c2cc(-c3ccccc3F)ccc12)C1CC1"
# output 0

# input // %Inh lookup, key: "Fc1cccc(CSc2nnc(-c3ccc4c(c3)CCO4)o2)c1"
# output 0

# input // %Inh lookup, key: "CCC(=O)c1c(-c2ccccc2)c2cc(Cl)ccc2c(=O)n1Cc1cc(S(C)(=O)=O)n(CCC(C)(C)O)n1"
# output 14

# input // %Inh lookup, key: "Cc1cccc(-c2cc(-c3c[nH]nc3-c3ccccn3)ccn2)c1"
# output 36

# input // %Inh lookup, key: "COc1cccc(C2=C(N(C)c3ccccc3)C(=O)NC2=O)c1"
# output 0

# input // %Inh lookup, key: "COc1cc2nccc(Nc3ccc(OCc4ccc(NC(C)=O)cc4)cc3)c2cc1OC.Cl"
# output 0

# input // %Inh lookup, key: "CCC(=O)c1c(-c2ccccc2)c2cc(Cl)ccc2c(=O)n1Cc1cc(S(C)(=O)=O)n(CC(F)F)n1"
# output 18

# input // %Inh lookup, key: "Cc1cccc(-c2nc(Nc3ccc4c(cnn4C)c3)c3ccccc3n2)n1"
# output 3

###

Test system: CLK4
Settings: concentration: 1 μM, replicates: in singlicate; n = 1
Quick rule: %Inh of at least 8% means true (1), below that means false (0).

# input Form field: %Inh at least 8%? Entry: CN1C(=O)C(Nc2ccccc2)=C(c2ccccc2)C1=O [SB-300079]
# output false (0)

# input Form field: %Inh at least 8%? Entry: OCCCNc1nccc(-c2c(-c3cccc(C(F)(F)F)c3)nn3cc(C(F)(F)F)ccc23)n1 [GW630813]
# output true (1)

# input Form field: %Inh at least 8%? Entry: "COC(=O)c1c(-c2ccccc2)c2cc(C)ccc2c(=O)n1Cc1ccccc1"
# output false (0)

# input Form field: %Inh at least 8%? Entry: COc1ccc(-n2cnc3c(N)ncnc32)cc1 [SKF-97236]
# output true (1)

# input Form field: %Inh at least 8%? Entry: "Fc1cccc(CSc2nnc(-c3ccc4c(c3)CCO4)o2)c1"
# output true (1)

# input Form field: %Inh at least 8%? Entry: CCn1c(-c2ccoc2)nc2cnccc21 [SB-733887]
# output false (0)

# input Form field: %Inh at least 8%? Entry: CCn1c(-c2nonc2N)nc2ccccc21 [SB-693162/GW549034]
# output false (0)

# input Form field: %Inh at least 8%? Entry: O=C(Nc1n[nH]c2nc(-c3ccccc3)c(Br)cc12)C1CC1 [SB-708998]
# output true (1)

###

System: CHEK1
Conditions: concentration: 1 μM, replicates: in singlicate; n = 1
readout_type: %Inh (%)
Your answer is read as %, so omit the unit and give the number.

# input // %Inh lookup, key: COc1cc2ncn(-c3cc(OCc4ccc(S(C)(=O)=O)cc4)c(C(N)=O)s3)c2cc1OC [GW869979]
# output 18

# input // %Inh lookup, key: CN1C(=O)C(Nc2ccccc2)=C(c2ccccc2)C1=O [SB-300079]
# output 0

# input // %Inh lookup, key: Nc1ncnc2c1ncn2-c1cccc2ccccc12 [SKF-97184]
# output 0

# input // %Inh lookup, key: Cc1cccc(-c2cc(-c3c[nH]nc3-c3ccccn3)ccn2)c1 [GW679395]
# output 0

# input // %Inh lookup, key: "Cc1nc(N(C)[C@H]2CN(C(=O)CC#N)CC[C@H]2C)c2cc[nH]c2n1"
# output 48

###

Test system: MST4
Conditions: concentration: 1 μM, replicates: in singlicate; n = 1
readout_type: %Inh
Answer with the value and then the unit.

# input // %Inh lookup, key: "Fc1cccc(CSc2nnc(-c3ccc4c(c3)CCO4)o2)c1"
# output 0%

# input // %Inh lookup, key: COc1cccc(-n2cnc3c(N)ncnc32)c1 [SKF-97416]
# output 28%

# input // %Inh lookup, key: "CC(C)(C)c1ccc(C(=O)Nc2cn3cc(-c4ccccc4)ccc3n2)cc1"
# output 0%

# input // %Inh lookup, key: COc1cccc(C2=C(N(C)c3ccccc3)C(=O)NC2=O)c1 [SB-334865]
# output 0%

# input // %Inh lookup, key: COc1cc2nccc(Nc3ccc(OCc4ccc(NC(C)=O)cc4)cc3)c2cc1OC.Cl [GW440135]
# output 1%

# input // %Inh lookup, key: "CCCNC(=O)Nc1ccc(Oc2ncnc3ccn(C)c23)cc1"
# output 0%

# input // %Inh lookup, key: Cc1cccc(-c2cc(-c3c[nH]nc3-c3ccccn3)ccn2)c1 [GW679395]
# output 0%

# input // %Inh lookup, key: Cc1cc(Nc2nc(-c3cccc(C)n3)nc3ccccc23)ccn1 [GW872411]
# output 0%

# input // %Inh lookup, key: Nc1ncnc2c1ncn2-c1cccc(F)c1 [SKF-97560]
# output 37%

# input // %Inh lookup, key: O=C(Nc1n[nH]c2nc(-c3ccccc3)c(Br)cc12)C1CC1 [SB-708998]
# output 0%

###

Test system: NEK6
Details: concentration: 1 μM, replicates: in singlicate; n = 1
readout_type: %Inh (%)
Your answer is read as %, so omit the unit and give the number.

# input // %Inh lookup, key: "Nc1n[nH]c2ncc(-c3ccccc3)cc12"
# output 0

# input // %Inh lookup, key: "CCC(=O)c1c(-c2ccccc2)c2cc(Cl)ccc2c(=O)n1Cc1cc(S(C)(=O)=O)n(CC(N)=O)n1"
# output 0

# input // %Inh lookup, key: "O=c1cc(N2CCOCC2)nc2n(Cc3ccc(F)c(Cl)c3)ccn12"
# output 0

# input // %Inh lookup, key: "O=C(NCc1cccs1)c1cc(C(=O)c2c(Cl)cccc2Cl)c[nH]1"
# output 0

# input // %Inh lookup, key: "COc1cc2ncn(-c3cc(OCc4ccncc4Br)c(C(N)=O)s3)c2cc1OC"
# output 0

# input // %Inh lookup, key: "Cc1c(Cn2c(C)nn3c(=O)cc(N4CCO[C@H](C)C4)nc23)cccc1C(F)(F)F"
# output 1

# input // %Inh lookup, key: "O=C(NCCNc1ccnc(Nc2ccc(F)cc2)n1)Nc1ccc2c(c1)OCO2"
# output 0

# input // %Inh lookup, key: "O=C(Nc1n[nH]c2cc(-c3ccccc3F)ccc12)C1CC1"
# output 0

# input // %Inh lookup, key: "OCCCNc1nccc(-c2c(-c3cccc(C(F)(F)F)c3)nn3cc(C(F)(F)F)ccc23)n1"
# output 0

# input // %Inh lookup, key: "Cc1ccc(-c2ccc3c(ccc4sc5c(c43)NC[C@@H](C)N=C5N(C)C)n2)cn1"
# output 0

# input // %Inh lookup, key: "CCS(=O)(=O)c1ccc(OC)c(Nc2ncc(-c3ccc(F)cc3)o2)c1.Cl"
# output 0

# input // %Inh lookup, key: "Cc1ccccc1COc1cc(-n2cnc3cc(Cl)ccc32)sc1C(N)=O"
# output 0

# input // %Inh lookup, key: "CCc1ccc(-c2ccc3c(c2)-c2nn(C)cc2S(=O)(=O)N3C)cc1"
# output 0

# input // %Inh lookup, key: "Nc1nc(N)c2nc(-c3ccccc3)[nH]c2n1"
# output 5

# input // %Inh lookup, key: "COc1cc2ncn(-c3cc(OCc4ccncc4)c(C(N)=O)s3)c2cc1OC"
# output 0

# input // %Inh lookup, key: "Cl.c1ccc(Cn2cnc3cc(Nc4ncnc5ccccc45)ccc32)cc1"
# output 0

# input // %Inh lookup, key: "C[C@@H]1CC[C@H](C(=O)NC2CCCCC2)CN1c1cc(-c2ccc3c(N)n[nH]c3c2)nc(N)n1"
# output 26

# input // %Inh lookup, key: "Cn1c(=O)c(F)c(Nc2ccc(I)cc2F)c2c(=O)n(OC[C@H](O)CO)cnc21"
# output 30

# input // %Inh lookup, key: COc1cc(Nc2nccc(N3CCC(NC(=O)C(C)c4ccc(Cl)cc4)C3)n2)cc(OC)c1OC (stereo not shown)
# output 0

# input // %Inh lookup, key: "COC(=O)c1c(-c2ccccc2)c2cc(C)ccc2c(=O)n1Cc1ccccc1"
# output 0

# input // %Inh lookup, key: "Nc1nccc2scc(-c3ccc4c(c3)CCN4C(=O)Cc3ccccc3)c12"
# output 0

# input // %Inh lookup, key: "COc1ccc(-c2cc3c(C)nc(N)nc3n([C@H]3CC[C@H](O)CC3)c2=O)cn1"
# output 0

# input // %Inh lookup, key: "Cc1nc(N(C)[C@H]2CN(C(=O)CC#N)CC[C@H]2C)c2cc[nH]c2n1"
# output 7

# input // %Inh lookup, key: "COc1cc(OC)cc(-c2cc3cnc(N)nc3nc2NC(=O)NC(C)(C)C)c1"
# output 0

# input // %Inh lookup, key: COc1cc(Nc2nccc(N3CCC(NC(=O)C4COc5ccccc5O4)C3)n2)cc(OC)c1OC (stereo not shown)
# output 21

# input // %Inh lookup, key: "O=C(Nc1n[nH]c2nc(-c3ccccc3)c(Br)cc12)C1CC1"
# output 0

# input // %Inh lookup, key: "CCc1nc(-c2cccc(C)c2)c(-c2ccncc2)s1"
# output 3

# input // %Inh lookup, key: "COc1cc2nccc(Nc3ccc(OCc4ccc(NC(C)=O)cc4)cc3)c2cc1OC.Cl"
# output 0

# input // %Inh lookup, key: "CCC(=O)c1c(-c2ccccc2)c2cc(Cl)ccc2c(=O)n1Cc1cc(S(C)(=O)=O)n(CC(F)F)n1"
# output 0

# input // %Inh lookup, key: "Nc1ncnc2c1ncn2-c1cccc(F)c1"
# output 0

# input // %Inh lookup, key: "CCC(=O)c1c(-c2ccccc2)c2cc(Cl)ccc2c(=O)n1Cc1cc(S(C)(=O)=O)n(CCC(C)(C)O)n1"
# output 14

# input // %Inh lookup, key: "Fc1cccc(CSc2nnc(-c3ccc4c(c3)CCO4)o2)c1"
# output 10

# input // %Inh lookup, key: "O=C(Nc1ccc2c(c1)OCO2)NC1CCN(c2ccnc(NCc3ccc(F)cc3)n2)CC1"
# output 0

# input // %Inh lookup, key: "CCCNC(=O)Nc1ccc(Oc2ncnc3ccn(C)c23)cc1"
# output 13

# input // %Inh lookup, key: "Nc1ncnc2c1ncn2-c1cccc2ccccc12"
# output 0

# input // %Inh lookup, key: "CN(C)c1cc(-c2ccc3c(N)n[nH]c3c2)nc(N)n1"
# output 0

# input // %Inh lookup, key: "Nc1ncnc2c1ncn2-c1ccc(Cl)cc1"
# output 0
